Reported IC50 values are given for each entry in this list.
Tested on: mouse vas deferens (MVD)
Format: cell-based
Non-standard residues stand in square brackets, D forms with d. Residues, ends and D or L forms follow the SMILES beside them. dNle = CCCC[C@@H](N)C(=O)O; dNva = CCC[C@@H](N)C(=O)O; Orn = NCCC[C@H](N)C(=O)O; Dab = NCC[C@H](N)C(=O)O
Note: unit nM is implicit; provide only the numeric part.

compound	observed
CCC[C@@H](NC(=O)[C@@H](N)Cc1ccc(O)cc1)C(=O)N[C@@H](Cc1ccccc1)C(=O)N[C@@H](CCCN)C(N)=O [BCH-752, H-Tyr-D-Nva-Phe-Orn-NH2] (H-Y[dNva]F[Orn]-NH2)	271

q: Name the recorded IC50 of the compound listed here: N=C(N)NCCC[C@@H](NC(=O)[C@@H](N)Cc1ccc(O)cc1)C(=O)N[C@@H](Cc1ccccc1)C(=O)N[C@@H](CCCN)C(N)=O [BCH-1765, H-Tyr-D-Arg-Phe-Orn-NH2]
a: 1090

q: Name the recorded IC50 of the compound listed here: N=C(N)NCCC[C@@H](NC(=O)[C@@H](N)Cc1ccc(O)cc1)C(=O)N[C@@H](Cc1ccccc1)C(=O)N[C@@H](CCN)C(N)=O [BCH-1764, H-Tyr-D-Arg-Phe-A2 bu-NH2] (H-Y[dR]F[Dab]-NH2)
a: 659

q: Name the recorded IC50 of the compound listed here: NCCCC[C@H](NC(=O)[C@H](Cc1ccccc1)NC(=O)[C@@H](CCCN=C(N)N)NC(=O)[C@@H](N)Cc1ccc(O)cc1)C(N)=O [BCH-150, H-Tyr-D-Arg-Phe-Lys-NH2]
a: 781

q: Name the recorded IC50 of the compound listed here: CCCC[C@@H](NC(=O)[C@@H](N)Cc1ccc(O)cc1)C(=O)N[C@@H](Cc1ccccc1)C(=O)N[C@@H](CCCN)C(N)=O [BCH-1763, H-Tyr-D-Nle-Phe-Orn-NH2] (H-Y[dNle]F[Orn]-NH2)
a: 2290
